Please go through the items and note down their pKi.
TESTED_ON: human motilin receptor (Homo sapiens)
Sequence (O43193 whole entry): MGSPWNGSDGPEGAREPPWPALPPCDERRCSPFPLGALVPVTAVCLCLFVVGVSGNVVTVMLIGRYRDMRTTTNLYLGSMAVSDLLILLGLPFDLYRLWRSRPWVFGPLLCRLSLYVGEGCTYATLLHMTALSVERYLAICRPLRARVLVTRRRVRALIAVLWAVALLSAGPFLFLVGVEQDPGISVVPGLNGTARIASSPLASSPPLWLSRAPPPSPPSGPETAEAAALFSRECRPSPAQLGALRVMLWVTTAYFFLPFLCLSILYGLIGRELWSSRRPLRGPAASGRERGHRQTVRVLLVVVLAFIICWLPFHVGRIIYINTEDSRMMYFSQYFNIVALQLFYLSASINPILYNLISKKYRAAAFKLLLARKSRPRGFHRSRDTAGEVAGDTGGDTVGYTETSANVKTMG
ASSAY_EXPLANATION: Competitive radioligand binding assay (motilin receptor)
Set-up: purchased PerkinElmer (SignalScreen) 6110544; host or cells: CHO cells, stably transfected; membranes
MEASUREMENT_SETUP: [125I]-motilin competition, membranes of CHO cells with human motilin receptor; read-out: Ki
pKi: −log10 of the molar value.

Reference set, count: 4
{"CHEMICAL_STRING": "CC(C)[C@H]1NC(=O)[C@@H](Cc2cccc(F)c2)N[C@@H](C)COc2ccccc2CCCNC(=O)[C@H](CN)NC1=O", "ASSAY_VALUE": "≥ 7.00"}
{"CHEMICAL_STRING": "CC(C)[C@H]1NC(=O)[C@@H](Cc2cccc(C(F)(F)F)c2)NCCOc2ccccc2C[C@H](C)CNC(=O)[C@H](CNC(=N)N)NC1=O", "ASSAY_VALUE": "≥ 8.00"}
{"CHEMICAL_STRING": "CC(C)C[C@@H]1NC(=O)[C@@H](C(C)C)NC(=O)[C@@H](Cc2cccc(F)c2)N[C@@H](C)COc2ccccc2CCCNC1=O", "ASSAY_VALUE": "≥ 8.00"}
{"CHEMICAL_STRING": "CCC[C@@H]1NC(=O)[C@@H](C(C)C)NC(=O)[C@@H](Cc2cccc(F)c2)N[C@@H](C)COc2ccccc2CCCNC1=O", "ASSAY_VALUE": "≥ 8.00"}

Give pKi for all compounds that follow.
1. CC(C)[C@H]1NC(=O)[C@@H](Cc2cccc(F)c2)N[C@@H](C)COc2ccccc2C[C@H](C)CNC(=O)[C@H](CN)NC1=O
2. CC(C)[C@H]1NC(=O)[C@@H](Cc2cccc(F)c2)NCCOc2ccccc2C[C@H](C)CNC(=O)[C@H](CC2CC2)NC1=O
3. CC(C)[C@H]1NC(=O)[C@@H](Cc2ccc(Cl)cc2)NCCOc2ccccc2CCCNC(=O)[C@H](CNS(C)(=O)=O)NC1=O
4. CC(C)[C@H]1NC(=O)[C@@H](Cc2cccc(Cl)c2)NCCOc2ccccc2CCCNC(=O)[C@H](CC(=N)N)NC1=O
5. CNC[C@@H]1NC(=O)[C@@H](C(C)C)NC(=O)[C@@H](Cc2cccc(C(F)(F)F)c2)NCCOc2ccccc2CCCNC1=O
6. CCC[C@@H]1NC(=O)[C@@H](C(C)C)NC(=O)[C@@H](Cc2ccc(F)cc2)N[C@@H](C)COc2ccccc2CCCNC1=O
7. C[C@H]1COc2ccccc2CCCNC(=O)[C@H](CC2CC2)NC(=O)[C@@H](C2CC2)NC(=O)[C@@H](Cc2cccc(F)c2)N1

-- reply
1: ≥ 8.00; 2: ≥ 8.00; 3: ≥ 6.00; 4: ≥ 7.00; 5: ≥ 8.00; 6: ≥ 8.00; 7: ≥ 8.00

-- ask Input `CCC[C@@H]1NC(=O)[C@@H](C(C)C)NC(=O)[C@@H](Cc2cccc(F)c2)N[C@@H](C)COc2cnccc2CCCNC1=O` , output reported pKi.
-- reply ≥ 8.00
